- Test system: Parabacteroides distasonis
- Protocol notes: growth AUC relative to DMSO control (median of replicates) (fraction); higher = more growth (less inhibition), active = hit call of the paper
- Condition info: 20 µM; 24 h
Recorded metric: growth AUC
Provide a numeric answer; units are not to be included.

CC(C)(NC(=O)NCc1ccccc1Cl)c1ccccc1 : 1.02
COc1ccc(Oc2ccc(NC(=O)N(C)C)cc2)cc1 : 0.989
CC1(C)C(=O)Oc2ccc(OS(C)(=O)=O)cc21 : 1.01
CC(C)CCCCCCc1ccc(O)cc1 : 1.02
Clc1ccc(CSc2ccc(Cl)cc2)cc1 : 1

Shifting focus to the molecule that follows.
*Q* Quick check: growth AUC of Cc1ccc(Cl)cc1 ?
*A* 0.984
